// provenance: patent US20220380374A1

Kindly supply the reported IC50 values for the records listed here.

Provide IC50, system wt human NUAK1, full length (Homo sapiens, UniProt O60285), entry `CC[C@H](C)Oc1cc2c(cc1F)-c1n[nH]cc1N=C(c1c(F)cccc1Cl)N2`
10 to 100 nM

Please tell me the measured IC50 for `Cc1cc(F)c(C2=Nc3ccc(C)cc3-c3n[nH]cc3N2)c(F)c1` ; system: wt human NUAK1, full length (Homo sapiens, UniProt O60285).
Sequence (O60285 whole entry): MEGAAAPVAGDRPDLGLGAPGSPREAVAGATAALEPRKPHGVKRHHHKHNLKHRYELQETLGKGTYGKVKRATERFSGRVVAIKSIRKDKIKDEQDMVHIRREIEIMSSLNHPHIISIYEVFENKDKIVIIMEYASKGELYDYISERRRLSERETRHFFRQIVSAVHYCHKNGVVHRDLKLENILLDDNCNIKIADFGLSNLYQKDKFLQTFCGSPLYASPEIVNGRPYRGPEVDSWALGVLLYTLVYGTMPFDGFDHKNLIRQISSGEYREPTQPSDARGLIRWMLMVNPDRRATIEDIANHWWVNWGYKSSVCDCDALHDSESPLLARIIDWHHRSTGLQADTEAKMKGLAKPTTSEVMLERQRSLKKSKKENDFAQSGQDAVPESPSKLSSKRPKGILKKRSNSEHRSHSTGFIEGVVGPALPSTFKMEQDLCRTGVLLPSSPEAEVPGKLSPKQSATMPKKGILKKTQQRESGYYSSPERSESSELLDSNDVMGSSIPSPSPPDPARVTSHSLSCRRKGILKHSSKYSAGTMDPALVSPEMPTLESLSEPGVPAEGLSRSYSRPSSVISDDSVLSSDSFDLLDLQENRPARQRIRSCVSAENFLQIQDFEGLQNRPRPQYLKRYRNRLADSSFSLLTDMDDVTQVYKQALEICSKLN
10 to 100 nM

State IC50 on wt human NUAK1, full length (Homo sapiens, UniProt O60285). Entry: `Fc1cccc(F)c1C1=Nc2c(C3CC3)n[nH]c2-c2ccccc2N1`
100 to 1000 nM

Lab note: wt human NUAK1, full length (Homo sapiens, UniProt O60285) assay, enter IC50 for `Fc1cccc(F)c1C1=Nc2ccc(Cl)cc2-c2[nH]ncc2N1` here
10 to 100 nM

State, for wt human NUAK1, full length (Homo sapiens, UniProt O60285), measured IC50 of the compound listed here: `COc1ccc2c(c1)N=C(c1c(F)cccc1Cl)Nc1cn[nH]c1-2`
10 to 100 nM

State IC50 on wt human NUAK1, full length (Homo sapiens, UniProt O60285). Entry: `Fc1cc(F)c(C2=Nc3ccc(Cl)cc3-c3n[nH]cc3N2)c(F)c1`
10 to 100 nM

State, for wt human NUAK1, full length (Homo sapiens, UniProt O60285), measured IC50 of the compound listed here: `Fc1cccc(F)c1C1=Nc2cn[nH]c2-c2cc(OC3CCOCC3)ccc2N1`
100 to 1000 nM

For wt human NUAK1, full length (Homo sapiens, UniProt O60285), give the measured IC50 of the entry `Fc1cccc(F)c1C1=Nc2cn[nH]c2-c2cc(OC(F)F)ccc2N1`
10 to 100 nM

Determine reported IC50 for `Fc1cccc(Cl)c1C1=Nc2cn[nH]c2-c2cc(OC(F)F)ccc2N1` ; test system: wt human NUAK1, full length (Homo sapiens, UniProt O60285).
10 to 100 nM

Provide IC50, system wt human NUAK1, full length (Homo sapiens, UniProt O60285), entry `Cc1ccc2c(c1)-c1n[nH]c(C)c1NC(c1c(F)cccc1F)=N2`
100 to 1000 nM

# return IC50 for `Cc1ccc2c(c1)-c1[nH]ncc1N=C(c1c(F)ccc(N)c1F)N2` , test system: wt human NUAK1, full length (Homo sapiens, UniProt O60285)
100 to 1000 nM

Provide the reported IC50 (system: wt human NUAK1, full length (Homo sapiens, UniProt O60285)) for `CCNC(=O)c1cc2c(cc1Cl)-c1n[nH]cc1N=C(c1c(F)cccc1F)N2`
10 to 100 nM

Give IC50; test system wt human NUAK1, full length (Homo sapiens, UniProt O60285); compound `Fc1ccc(F)c(C2=Nc3ccccc3-c3[nH]ncc3N2)c1F`
100 to 1000 nM

GET IC50 | system: wt human NUAK1, full length (Homo sapiens, UniProt O60285) | item: `Cc1ccc2c(c1)-c1[nH]ncc1N=C(c1c(F)cccc1Cl)N2`
10 to 100 nM

Provide wt human NUAK1, full length (Homo sapiens, UniProt O60285) IC50 reading for `FCCc1ccc2c(c1)-c1n[nH]cc1NC(c1c(F)cccc1F)=N2` .
100 to 1000 nM

Lab note: record IC50 of `Cc1n[nH]c2c1NC(c1c(F)cccc1F)=Nc1ccccc1-2` tested on wt human NUAK1, full length (Homo sapiens, UniProt O60285).
10 to 100 nM

Give measured IC50 for `Fc1cc2c(cc1OC1CCOCC1)N=C(c1c(Cl)cccc1Cl)Nc1c[nH]nc1-2` (wt human NUAK1, full length (Homo sapiens, UniProt O60285)).
100 to 1000 nM
